Target: T1, human Sdc2 (human, UniProt P34741 19-144, limits assumed)
T1 construct: Antigen of the Octet tandem binning, loaded on biosensors at 100 nM; also called huSdc2; hSdc2
T1 sequence (P34741 19-144 limits assumed): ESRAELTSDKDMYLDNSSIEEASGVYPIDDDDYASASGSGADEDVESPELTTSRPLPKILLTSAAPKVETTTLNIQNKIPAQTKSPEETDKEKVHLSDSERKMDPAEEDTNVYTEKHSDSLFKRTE
Test: Octet tandem binning; saturating Ab m4 19844-R4M-P1-A10
Below, each of the binders is paired with its reported raw competing-Ab binding signal value.
Output spec: single numeric token, no unit.

Example results:
>>> observed("R3-P3-C11 (antibody, human IgG1, kappa, V domains shown, human IgG1 kappa from the phage campaign) VH: EVQLVESGGGLVQPGRSLRLACEASGFTFNNYAVHWVRQAPGKGLEWVAVISYDGTNKYYSDSMKGRFTISRDNSKNTLYLQINSLRVEDTAVYFCARGNYVRRDSFDIWGQGTMVTVSS VL: DIQMTQSPPSLSASVGDRVTITCRASQSISSYLNWYQQKPGKAPKLLIYGASSLQSGVPLRFSGSGSGADFTLTISSLQPEDFATYYCQQSYISPITFGQGTRLEIKR")
0.518
>>> observed("6-N03-A (antibody, mouse IgG1, kappa, V domains shown) VH: EVQLVESGGGLVKPGGSLKLSCEASGITFSNYVMSWVRQTPEKRLEWVATISDGGSYTYYPDNVKGRFTISRDNAKNNLYLQMSHLKSEDTAMYYCVRDRYDYDGRVYAMDYWGQGTSVTVSS VL: DVVMTQTPLSLPVSLGDQASISCRSSQSLVHSNGDTYLHWYLQKPGQSPKLLIYKVSNRFSGVPDRFSGSGSGTDFTLKITRVEAEDLGVYFCSQSTHVPWTFGGGTKLEIKR")
0.374

Let us examine a further case.
Recorded raw competing-Ab binding signal for R4M-P3-A12 (antibody, human IgG1, kappa, V domains shown) VH: EVQLVESGGGVVQPGGSLRLSCAASGFTFSDHYMSWIRQAPGKGLEWVSYLSGSGTSIYYADSVKGRFTISRDNAKKSLYLQMNSLRAEDTAVYYCARVGPAAGNAFDIWGQGTMVTVSS VL: QSVLTQPPSASGTPGQRVTISCSGSSSNIGSNYVYWYQQLPGTAPKLLIYRNNQRPSGVPDRFSGSKSGTSASLAITGLQAEDEADYYCQSYDSSLSGVVFGGGTKLTVLR , please?
-0.0712
